target: T1, biotinylated human GPIIb/IIIa ectodomain protein (human, UniProt P08514 32-993; P05106 27-718, biotinylated (site not stated)); assay: SPR, biotinylated GPIIb/IIIa ectodomain on streptavidin chip, Fab as analyte, 1:1 model
T1 construct: extracellular domain; also called purified GPIIb/IIIa
T1 sequence (P08514 32-993, chain 1 of 2): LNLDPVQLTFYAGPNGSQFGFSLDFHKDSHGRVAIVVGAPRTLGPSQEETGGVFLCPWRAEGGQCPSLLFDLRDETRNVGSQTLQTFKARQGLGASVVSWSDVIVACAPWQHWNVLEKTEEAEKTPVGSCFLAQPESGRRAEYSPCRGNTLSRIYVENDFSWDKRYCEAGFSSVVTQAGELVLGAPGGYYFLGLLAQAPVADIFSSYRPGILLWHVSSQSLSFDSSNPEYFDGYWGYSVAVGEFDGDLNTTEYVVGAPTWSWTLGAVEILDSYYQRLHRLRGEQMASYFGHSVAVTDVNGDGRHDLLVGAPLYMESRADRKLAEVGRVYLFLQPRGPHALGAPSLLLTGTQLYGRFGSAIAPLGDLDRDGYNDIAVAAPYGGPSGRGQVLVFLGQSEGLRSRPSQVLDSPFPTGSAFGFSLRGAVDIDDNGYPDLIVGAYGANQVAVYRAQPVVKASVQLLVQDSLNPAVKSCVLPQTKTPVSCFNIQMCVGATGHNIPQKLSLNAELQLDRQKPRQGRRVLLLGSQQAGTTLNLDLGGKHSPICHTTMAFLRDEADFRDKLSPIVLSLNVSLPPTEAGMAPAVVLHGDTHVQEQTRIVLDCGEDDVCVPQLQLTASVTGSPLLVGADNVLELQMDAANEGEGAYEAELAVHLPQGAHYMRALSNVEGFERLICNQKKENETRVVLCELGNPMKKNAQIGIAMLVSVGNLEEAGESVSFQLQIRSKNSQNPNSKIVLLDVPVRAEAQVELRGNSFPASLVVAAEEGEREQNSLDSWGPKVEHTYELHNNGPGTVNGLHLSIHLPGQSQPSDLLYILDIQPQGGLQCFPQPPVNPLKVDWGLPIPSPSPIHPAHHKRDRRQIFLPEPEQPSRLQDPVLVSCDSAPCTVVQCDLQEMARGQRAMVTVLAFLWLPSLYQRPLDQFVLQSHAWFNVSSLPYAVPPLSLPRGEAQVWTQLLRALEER
T1 sequence (P05106 27-718, chain 2 of 2): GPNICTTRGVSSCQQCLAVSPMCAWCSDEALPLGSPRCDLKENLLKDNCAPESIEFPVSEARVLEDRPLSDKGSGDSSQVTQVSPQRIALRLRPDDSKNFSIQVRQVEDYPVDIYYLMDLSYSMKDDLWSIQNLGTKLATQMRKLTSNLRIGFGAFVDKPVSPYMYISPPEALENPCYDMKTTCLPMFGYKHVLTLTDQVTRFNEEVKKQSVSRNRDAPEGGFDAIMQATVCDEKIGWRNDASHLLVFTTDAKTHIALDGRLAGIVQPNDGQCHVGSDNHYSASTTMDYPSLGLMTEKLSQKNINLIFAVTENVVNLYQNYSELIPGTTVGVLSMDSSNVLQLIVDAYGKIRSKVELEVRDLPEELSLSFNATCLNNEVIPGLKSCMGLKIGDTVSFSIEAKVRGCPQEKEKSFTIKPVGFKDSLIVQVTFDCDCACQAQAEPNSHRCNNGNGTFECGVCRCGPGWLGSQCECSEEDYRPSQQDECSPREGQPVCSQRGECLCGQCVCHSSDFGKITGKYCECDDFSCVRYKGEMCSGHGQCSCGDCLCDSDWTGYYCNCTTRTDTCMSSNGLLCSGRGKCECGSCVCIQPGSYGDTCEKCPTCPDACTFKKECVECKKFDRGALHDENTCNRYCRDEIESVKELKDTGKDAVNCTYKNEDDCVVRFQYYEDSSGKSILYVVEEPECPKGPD
READOUT_NAME: pKd
A value of pKd is the negative decimal logarithm of a concentration given in moles per litre.

Known pKd results, listed for orientation:
BINDER	READOUT_NAME	EXPERIMENTAL_VALUE
humanized 34D10 Fab L0/H2 (Fab, V domains shown, Fab; also called VL0/VH2) VH: EVQLVESGGGLVKPGGSLRLSCAASGFTFSAYAMSWVRQAPGKGLVWVASISSGGTTYYPDSVKRQFTISRDNAKNTLYLQMNSLRAEDTAVYYCTRGGDYGYALDYWGQGTLVTVSS VL: EIVMTQSPATLSVSPGERATLSCRASSSVNYMYWYQQKPGQAPRLLIYYTSNLAPGIPARFSGSGSGTEFTLTISSLQSEDFAVYYCQQFSSSPWTFGQGTKVEIK	pKd	8.55
humanized 34D10 Fab L1/H3 (Fab, V domains shown, Fab; only variable domains are tied by name; also called VL1/VH3) VH: EVQLVQSGGGLVKPGESLRLSCAASGFTFSAYAMSWVRQAPGKGLEWVASISSGGTTYYPDSVKRRFTISRDNAKNTLYLQMNSLRAEDTAVYYCTRGGDYGYALDYWGQGTLVTVSS VL: EIVLTQSPATLSVSPGERATLSCRASSSVNYMYWYQQKPGQAPRLLIYYTSNLAPGVPARFSGSGSGTEFTLTISSLQSEDFAVYYCQQFSSSPWTFGQGTKVEIK	pKd	6.96
mouse Fab (34D10) (Fab, V domains shown, Fab; also called mouse 34D10 Fab) VH: EVKLVESGGGLVKPGGSLKLSCAASGFTFSAYAMSWVRQTPEKRLEWVASISSGGTTYYPDSVKRRFTISRDNARNILYLQMSSLRSEDTAMYYCTRGGDYGYALDYWGQGTSVTVSS VL: ENVLTQSPAIMSASLGEKVTMSCRASSSVNYMYWYQQKSDASPKLWIYYTSNLAPGVPARFSGSGSGNSYSLTISSMEGEDAATYYCQQFSSSPWTFGGGTKLEIK	pKd	8.55

The reported pKd of the binder humanized 34D10 Fab L0/H5 (Fab, V domains shown, Fab; also called VL0/VH5) VH: EVKLVESGGGLVKPGGSLRLSCAASGFTFSAYAMSWVRQAPGKGLEWVASISSGGTTYYPDSVKRRFTISRDNARNTLYLQMNSLRAEDTAVYYCTRGGDYGYALDYWGQGTLVTVSS VL: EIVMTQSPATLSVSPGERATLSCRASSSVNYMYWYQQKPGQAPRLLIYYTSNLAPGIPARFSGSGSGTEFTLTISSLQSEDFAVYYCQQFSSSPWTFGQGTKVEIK was 8.28
